# Test system: ragweed (common ragweed, Ambrosia elatior)
# test summary: Test A postemergence
# Assay type: in vivo
# experimental conditions: Ambrosia artemisiifolia, post-emergence, 240 h, 500 g ai/ha, postemergence; 0 to 100 scale, 0 is no effect, 100 is complete control; read-out: Ragweed plant response rating
measured metric: pest or weed control at 500 g/ha (%)
Response body: numeric value in %, unit text excluded.

Worked examples follow.
molecule	measurement units	pest or weed control at 500 g/ha
Cc1cccc([C@H]2CN(C)C(=O)[C@@H]2C(=O)Nc2cccc(F)c2C)c1	%	30
CN1C[C@H](c2cc(F)cc(F)c2)[C@@H](C(=O)Nc2ccncc2F)C1=O	%	0

Problem: Which pest or weed control at 500 g/ha is reported for this molecule? O=C1NC[C@H](c2ccc(C(F)(F)F)cc2)C1C(=O)Nc1c(F)cccc1CO (stereo partly drawn)
Result: 0

Problem: Another: Cc1c(F)cccc1NC(=O)[C@H]1C(=O)NC[C@@H]1c1cc(F)c(F)c(F)c1
Result: 0

Problem: Another: O=C1NC[C@H](c2ccc(F)c(OC(F)(F)C(F)(F)Br)c2)[C@H]1C(=O)Nc1ccccc1F
Result: 30

Problem: Another: COc1ccc([C@H]2CN(C)C(=O)[C@@H]2C(=O)Nc2ccccc2SC)c(OC)c1
Result: 0

Problem: Another: O=C1NC[C@H](c2ccc(F)c(OC(F)(F)C(F)F)c2)[C@H]1C(=O)Nc1cccc(F)c1F
Result: 80

Problem: Another: Cc1cc([C@H]2CN(C)C(=O)[C@@H]2C(=O)Nc2ccccc2F)no1
Result: 0

Problem: Another: Cc1ccc([C@H]2CCN(C)C(=O)[C@@H]2C(=O)Nc2cccc(Cl)c2F)cc1
Result: 20

---

# Tested on: barnyardgrass (Echinochloa crus-galli)
# test summary: Test A postemergence
# Assay type: in vivo
# experimental conditions: 500 g ai/ha, postemergence; visual injury, 0 to 100 scale (0 no effect, 100 complete control), approx. 10 d
measured metric: Plant response rating, Barnyardgrass
The answer should be written as a number, with no unit following it.

Worked examples follow.
molecule	Plant response rating, Barnyardgrass
CN1CC(c2ccc(F)c(F)c2)C(C(=O)Nc2ccccc2S(C)(=O)=O)C1=O (stereo not drawn)	90
CN1CC(c2ccc(C(C)(F)F)cc2)C(C(=O)Nc2ccccc2S(C)(=O)=O)C1=O (stereo not drawn)	80

Problem: Which Plant response rating, Barnyardgrass is reported for this molecule? CC(C)Oc1cccc(C2CN(C)C(=O)C2C(=O)Nc2ccccc2S(C)(=O)=O)c1 (stereo not drawn)
Result: 90

---

# System: giant foxtail (Setaria faberii)
# test summary: Test A preemergence
# Format: in vivo
# experimental conditions: Setaria faberi, pre-emergence, 240 h, 500 g ai/ha, preemergence; 0 to 100 scale where 0 is no effect and 100 is complete control; read-out: Foxtail, Giant plant response rating
Below, each of the compounds is paired with its reported pest or weed control at 500 g/ha value.
Response body: numeric value in %, unit text excluded.

Worked examples follow.
compound	measured
Cc1ccc([C@H]2CCN(C)C(=O)[C@@H]2C(=O)Nc2cccc(Cl)c2F)cc1 [Compound 1223]	90
Cc1cccc([C@H]2CN(C)C(=O)[C@@H]2C(=O)Nc2ccc(F)c(F)c2F)c1 [Compound 1231]	90

Problem: Which pest or weed control at 500 g/ha is reported for this compound? Cc1cc([C@H]2CN(C)C(=O)[C@@H]2C(=O)Nc2cccc(F)c2F)on1 [Compound 1196]
Result: 90

---

# Test system: ragweed (common ragweed, Ambrosia elatior)
# test summary: Test A preemergence
# Assay type: in vivo
# experimental conditions: Ambrosia artemisiifolia, pre-emergence, 240 h, 500 g ai/ha, preemergence; 0 to 100 scale where 0 is no effect and 100 is complete control; read-out: Ragweed plant response rating
measured metric: pest or weed control at 500 g/ha (%)
Response body: numeric value in %, unit text excluded.

compound	experimental system	measurement units	measured
CN1CC(c2cccc(Br)c2)C(C(=O)Nc2ccccc2F)C1=O (stereo not shown)	ragweed (common ragweed, Ambrosia elatior)	%	0
CN1CC[C@H](c2ccc(C(F)(F)F)cc2)[C@@H](C(=O)Nc2cccc(Cl)c2F)C1=O	ragweed (common ragweed, Ambrosia elatior)	%	0
CN1C[C@H](c2ccc(F)c(F)c2)[C@@H](C(=S)Nc2ccccc2F)C1=O (racemic)	ragweed (common ragweed, Ambrosia elatior)	%	0
CN1C[C@H](c2ccc(C(F)(F)F)cc2)[C@@H](C(=O)Nc2ccccc2)C1=O	ragweed (common ragweed, Ambrosia elatior)	%	60
Cc1cc([C@H]2CN(C)C(=O)[C@@H]2C(=O)Nc2ccccc2S(C)(=O)=O)ccc1Br	ragweed (common ragweed, Ambrosia elatior)	%	50

Problem: Which pest or weed control at 500 g/ha is reported for this compound? Cc1cc(F)cc([C@H]2CNC(=O)[C@@H]2C(=O)Nc2cccc(F)c2C)c1
Result: 70

Problem: Another: N#Cc1ccc([C@H]2CNC(=O)[C@@H]2C(=O)Nc2cccc(F)c2F)cc1
Result: 60

---

# Tested on: ragweed (common ragweed, Ambrosia elatior)
# test summary: Test A postemergence
# Type: in vivo
# experimental conditions: Postemergence, 500 g ai/ha; 0 to 100 scale where 0 is no effect and 100 is complete control
measured metric: Plant response rating, Ragweed
The answer should be written as a number, with no unit following it.

Problem: Which Plant response rating, Ragweed is reported for this compound? CN1CC(c2cccc(OC(F)F)c2)C(C)(C(=O)Nc2cccc(F)c2F)C1=O (stereo not drawn) [Compound 619]
Result: 0

Problem: Another: COc1c(F)ccc(NC(=O)C2C(=O)NCC2c2cccc(OC(F)(F)C(F)F)c2)c1F (racemic) [Compound 540]
Result: 20

Problem: Another: Cc1ccc(C2CN(C)C(=O)C2C(=O)Nc2ccc(F)cc2F)c(F)c1 (stereo not drawn) [Compound 559]
Result: 0

Problem: Another: O=C1NCC(c2cc(F)ccc2F)C1C(=O)Nc1ccccc1F (racemic) [Compound 544]
Result: 0

Problem: Another: C=CCN1CC(c2cccc(C(F)(F)F)c2)C(C(=O)Nc2ccccc2F)C1=O (stereo not drawn) [Compound 605]
Result: 0

Problem: Another: O=C1NCC(c2cc(F)cc(Cl)c2)C1C(=O)Nc1ccccc1F (stereo not drawn) [Compound 491]
Result: 20

---

# System: Galium (catchweed bedstraw, Galium aparine)
# test summary: Test A postemergence
# Type: in vivo
# experimental conditions: 500 g ai/ha, postemergence; visual injury, 0 to 100 scale (0 no effect, 100 complete control), approx. 10 d
Below, each of the compounds is paired with its reported Plant response rating, Galium value.

Worked examples follow.
compound	experimental system	Plant response rating, Galium
Cc1ccc(C2CN(C)C(=O)C2C(=O)Nc2ccccc2S(C)(=O)=O)cc1 (stereo not drawn)	Galium (catchweed bedstraw, Galium aparine)	60
Cc1ccc(C2CNC(=O)C2C(=O)Nc2ccccc2F)cc1C(F)(F)F (racemic)	Galium (catchweed bedstraw, Galium aparine)	60

Now let's try a different one.
Problem: Which Plant response rating, Galium is reported for this compound? CN1CC(c2ccc(C(C)(F)F)cc2)C(C(=O)Nc2ccccc2S(C)(=O)=O)C1=O (stereo not drawn)
Result: 60

---

Below, each of the compounds is paired with its reported Plant response rating, Ducksalad value.
# Test system: ducksalad (Heteranthera limosa)
# test summary: Test B flooded paddy test
# Format: in vivo
# experimental conditions: Flood, 250 g ai/ha; 0 to 100 scale where 0 is no effect and 100 is complete control; 13 to 15 d

Worked examples follow.
compound	Plant response rating, Ducksalad
CN1CC(c2cccc(OC(F)F)c2)C(C)(C(=O)Nc2cccc(F)c2F)C1=O (stereo not drawn)	0
CN1CC(c2ccc(C(F)(F)F)c(F)c2)C(C(=O)Nc2cccc(F)c2F)C1=O (stereo not drawn)	40
CCc1ccc(C2CNC(=O)C2C(=O)Nc2ccccc2F)cc1 (stereo not drawn)	0
CN1CC(c2ccc(C(F)(F)F)cc2F)C(C(=O)Nc2ccc(F)cc2F)C1=O (stereo not drawn)	80
O=C1NCC(c2cc(F)cc(Cl)c2)C1C(=O)Nc1ccccc1F (stereo not drawn)	40

Now let's try a different one.
Problem: Which Plant response rating, Ducksalad is reported for this compound? COCc1cccc(C2CNC(=O)C2C(=O)Nc2cccc(F)c2F)c1 (stereo not drawn)
Result: 90

---

Below, each of the compounds is paired with its reported pest or weed control at 250 g/ha value.
# System: barnyardgrass (Echinochloa crus-galli)
# test summary: Test G Post-Emergence Protocol
# Assay type: in vivo
# experimental conditions: Echinochloa crus-galli, post-emergence, 312 h, 250 g ai/ha, evaluated after 13 days, read-out: damage to plant, Barnyardgrass (100=total damage to plant; 0=no damage to plant)
Response body: numeric value in %, unit text excluded.

Worked examples follow.
compound	pest or weed control at 250 g/ha [%]
CSc1nnc(NC(=O)[C@@H]2C(=O)N(C)C[C@H]2c2ccc(C(F)(F)F)cc2)[nH]1 (racemic)	0
CN1C[C@@H](c2ccc(C(F)(F)F)cc2)[C@H](C(=O)Nc2cccnn2)C1=O (racemic)	0

Now let's try a different one.
Problem: Which pest or weed control at 250 g/ha is reported for this compound? CN1C[C@@H](c2cncc(Cl)c2)[C@H](C(=O)Nc2cccc(F)c2F)C1=O (racemic)
Result: 50
